Entries annotated with measured MCC at 72 h
# assay comment: Cytotoxicity against human A549 cells assessed as changes in cell morphology after 3 days by microscopic method
# Format: cell-based

Worked set:
Entry CCCCSC1=C(SCCCC)C(=O)N(Cc2cn(C3C(=O)N[C@@H]4Cc5ccc(c(Cl)c5)Oc5cc6cc(c5O)Oc5ccc(cc5Cl)[C@@H](O[C@@H]5O[C@H](CO)[C@@H](O)[C@H](O)[C@H]5NC(C)=O)[C@H]5NC(=O)[C@H](NC(O)[C@@H]6NC(=O)[C@@H](NC4=O)c4cc(O)cc(c4)Oc4cc3ccc4O)c3ccc(O)c(c3)-c3c(O)cc(O)cc3[C@H](C(=O)O)NC5=O)nn2)C1=O (stereo partly drawn) ; MCC at 72 h = > 50 µM

Entry `O=C(N/C(=C\c1ccccc1)C(=O)N1CCC(O)(c2ccc(Br)cc2)CC1)c1ccccc1` ; MCC at 72 h = ≥ 50 µM

Please turn your attention to the following entry.
Entry CC(=O)N[C@H]1[C@H](O[C@@H]2c3ccc(c(Cl)c3)Oc3cc4cc(c3O)Oc3ccc(cc3Cl)C[C@H]3NC(=O)[C@H](NS(=O)(=O)c5ccccc5)c5ccc(O)c(c5)Oc5cc(O)cc(c5)[C@H](NC3=O)C(=O)N[C@H]4C(O)N[C@H]3C(=O)N[C@H]2C(=O)N[C@@H](C(=O)O)c2cc(O)cc(O)c2-c2cc3ccc2O)O[C@H](CO)[C@@H](O)[C@@H]1O (stereo partly drawn) ; MCC at 72 h = > 50 µM

---

# Test system: MDCK
# assay comment: Cytotoxicity against MDCK cells assessed as reduction in cell viability after 3 days by MTS assay
# Assay type: cell-based, Canis lupus familiaris
# experimental context: dog, mdck, 72 h
Entries annotated with measured CC50

Worked set:
The observed CC50 for CCCCOCc1cn(CCOCCOCCOCCOCc2cn([C@H]3C(=O)N[C@@H]4Cc5ccc(c(Cl)c5)Oc5cc6cc(c5O)Oc5ccc(cc5Cl)[C@@H](O[C@@H]5O[C@H](CO)[C@@H](O)[C@H](O)[C@H]5NC(C)=O)[C@H]5NC(=O)[C@H](NC(O)[C@@H]6NC(=O)[C@@H](NC4=O)c4cc(O)cc(c4)Oc4cc3ccc4O)c3ccc(O)c(c3)-c3c(O)cc(O)cc3[C@H](C(=O)O)NC5=O)nn2)nn1 (stereo partly drawn) when tested with MDCK stands at > 100 µM

The observed CC50 for CCCCCCCCCCCCS(=O)(=O)N[C@H]1C(=O)N[C@@H]2Cc3ccc(c(Cl)c3)Oc3cc4cc(c3O)Oc3ccc(cc3Cl)[C@@H](O[C@@H]3O[C@H](CO)[C@@H](O)[C@H](O)[C@H]3NC(C)=O)[C@H]3NC(=O)[C@H](NC(O)[C@@H]4NC(=O)[C@@H](NC2=O)c2cc(O)cc(c2)Oc2cc1ccc2O)c1ccc(O)c(c1)-c1c(O)cc(O)cc1[C@H](C(=O)O)NC3=O (stereo partly drawn) when tested with MDCK stands at 4.5 µM

Please turn your attention to the following entry.
The observed CC50 for CC(=O)N[C@H]1[C@H](O[C@@H]2c3ccc(c(Cl)c3)Oc3cc4cc(c3O)Oc3ccc(cc3Cl)C[C@H]3NC(=O)[C@H](NS(=O)(=O)c5ccc(C)cc5)c5ccc(O)c(c5)Oc5cc(O)cc(c5)[C@H](NC3=O)C(=O)N[C@H]4C(O)N[C@H]3C(=O)N[C@H]2C(=O)N[C@@H](C(=O)O)c2cc(O)cc(O)c2-c2cc3ccc2O)O[C@H](CO)[C@@H](O)[C@@H]1O (stereo partly drawn) when tested with MDCK stands at > 100 µM

Entry source: ChEMBL document CHEMBL4270630
